Each recorded value in this set is attributed to patent US20090305954A1.

test system: CL1 human prostate carcinoma cell line; assay: XTT proliferation (cytotoxicity) assay, CL1; assay type: cell-based; details: CL1, pH 7.4, 24 h
Square brackets hold non-standard residues; d marks the D form. Peptide text beside a SMILES is read from it.
assayEndpoint: Lethal Concentration (LC50)

Problem: Give Lethal Concentration (LC50) (CL1 human prostate carcinoma cell line) of the following compound: CC(C)C[C@H](NC(=O)[C@H](CC(C)C)NC(=O)[C@@H](Cc1c[nH]cn1)NC(=O)[C@H](CC(C)C)NC(=O)[C@H](CC(C)C)NC(=O)[C@H](Cc1c[nH]cn1)NC(=O)[C@@H](Cc1c[nH]cn1)NC(=O)[C@@H](CC(C)C)NC(=O)[C@H](CC(C)C)NC(=O)[C@@H](CCCCN)NC(=O)[C@H](Cc1c[nH]cn1)NC(=O)[C@H](CC(C)C)NC(=O)[C@@H](CC(C)C)NC(=O)[C@H](Cc1c[nH]cn1)NC(=O)[C@@H](N)CC(C)C)C(N)=O [Peptide 16] (H-LH[dL]LH[dK]L[dL][dH]HLL[dH]LL-NH2)
Result: 12.5 µg/mL
